The values you see were collected from ChEMBL document CHEMBL1149187.

- experimentSummary: Half-life in dog upon oral administration
- appliedConditions: in vivo
endpointName: half-life (h)

[[record]]
compound = "Cn1cncc1C(OCc1ccc(C#N)cc1-c1ccc2c(c1)OCO2)c1ccc(C#N)cc1 (stereo not given)"
reportedvalue = 2.7

[[record]]
compound = "Cn1cncc1C(OCc1ccc(C#N)cc1-c1cccc(Cl)c1)c1ccc(C#N)cc1 (stereo not given)"
reportedvalue = 4.7

[[record]]
compound = "Cn1cncc1C(OCc1ccc(C#N)cc1-c1ccc2c(c1)OC(F)(F)O2)c1ccc(C#N)cc1 (stereo not given)"
reportedvalue = 1.3

[[record]]
compound = "Cn1cncc1C(OCc1ccc(C#N)cc1-c1ccc(OC(F)(F)F)cc1)c1ccc(C#N)cc1 (stereo not given)"
reportedvalue = 6.7

[[record]]
compound = "COc1ccc(-c2cc(C#N)ccc2COC(c2ccc(C#N)cc2)c2cncn2C)cc1 (stereo not given)"
reportedvalue = 3.6

[[record]]
compound = "Cn1cncc1C(OCc1ccc(C#N)cc1C(=O)Nc1ccccc1)c1ccc(C#N)cc1 (stereo not given)"
reportedvalue = 18.4

[[record]]
compound = "COCc1cccc(-c2cc(C#N)ccc2COC(c2ccc(C#N)cc2)c2cncn2C)c1 (stereo not given)"
reportedvalue = 2.2

[[record]]
compound = "Cn1cncc1C(OCc1ccc(C#N)cc1-c1cccc(Cl)c1)c1ccc(C#N)c(F)c1 (stereo not given)"
reportedvalue = 8.7

[[record]]
compound = "Cc1ncc(C(OCc2ccc(C#N)cc2-c2ccc3c(c2)OCO3)c2ccc(C#N)cc2)n1C (stereo not given)"
reportedvalue = 0.9

[[record]]
compound = "CCOc1cccc(-c2cc(C#N)ccc2COC(c2ccc(C#N)cc2)c2cncn2C)c1 (stereo not given)"
reportedvalue = 2.2


---

- experimentSummary: in vivo
- appliedConditions: dog
endpointName: bioavailability (%)

[[record]]
compound = "Cn1cncc1C(OCc1ccc(C#N)cc1C(=O)Nc1ccccc1)c1ccc(C#N)cc1 (centres undefined)"
scaleunit = "%"
reportedvalue = 96

[[record]]
compound = "Cc1ncc(C(OCc2ccc(C#N)cc2-c2ccc3c(c2)OCO3)c2ccc(C#N)cc2)n1C (centres undefined)"
scaleunit = "%"
reportedvalue = 15.2

[[record]]
compound = "Cn1cncc1C(OCc1ccc(C#N)cc1-c1cccc(Cl)c1)c1ccc(C#N)c(F)c1 (centres undefined)"
scaleunit = "%"
reportedvalue = 71

[[record]]
compound = "Cn1cncc1C(OCc1ccc(Cl)cc1-c1ccccc1Cl)c1ccc(C#N)cc1 (centres undefined)"
scaleunit = "%"
reportedvalue = 65


---

- experimentalSystem: Protein farnesyltransferase (Homo sapiens, UniProt P49354+P49356)
- experimentSummary: Effective concentration required for inhibition of farnesylation of Ras protein in NIH3T3 cells
endpointName: log10(EC50) (log10 of the value in nM)

[[record]]
compound = "Cn1cncc1C(OCc1ccc(C#N)cc1-c1ccc2c(c1)OC(F)(F)O2)c1ccc(C#N)cc1 (stereo unspecified)"
experimentalsystem = "Protein farnesyltransferase (Homo sapiens, UniProt P49354+P49356)"
reportedvalue = 0.96

[[record]]
compound = "Cn1cncc1C(OCc1ccc(Cl)cc1-c1cccc(Cl)c1)c1ccc(C#N)cc1 (stereo unspecified)"
experimentalsystem = "Protein farnesyltransferase (Homo sapiens, UniProt P49354+P49356)"
reportedvalue = 2.59

[[record]]
compound = "COCc1cccc(-c2cc(C#N)ccc2COC(c2ccc(C#N)cc2)c2cncn2C)c1 (stereo unspecified)"
experimentalsystem = "Protein farnesyltransferase (Homo sapiens, UniProt P49354+P49356)"
reportedvalue = 0.00

[[record]]
compound = "Cn1cncc1C(OCc1ccc(C#N)cc1-c1ccc(OC(F)(F)F)cc1)c1ccc(C#N)cc1 (stereo unspecified)"
experimentalsystem = "Protein farnesyltransferase (Homo sapiens, UniProt P49354+P49356)"
reportedvalue = 0.71

[[record]]
compound = "Cn1cncc1C(OCc1ccc(C#N)cc1C(=O)Nc1ccccc1)c1ccc(C#N)cc1 (stereo unspecified)"
experimentalsystem = "Protein farnesyltransferase (Homo sapiens, UniProt P49354+P49356)"
reportedvalue = 1.08


---

- experimentalSystem: Protein farnesyltransferase (Homo sapiens, UniProt P49354+P49356)
- experimentSummary: Effective concentration required for inhibition of farnesylation of Ras protein in NIH3T3 cells
Measured log10 of EC50 of individual entries
endpointName: log10 of EC50 (log10 of the value in nM)

[[record]]
compound = "COc1cccc(-c2cc([N+](=O)[O-])ccc2COC(c2ccc(C#N)cc2)c2cncn2C)c1 (centres undefined)"
endpointname = "log10 of EC50"
reportedvalue = -0.09

[[record]]
compound = "Cc1ncc(C(OCc2ccc(C#N)cc2-c2ccc3c(c2)OCO3)c2ccc(C#N)cc2)n1C (centres undefined)"
endpointname = "log10 of EC50"
reportedvalue = 0.99

[[record]]
compound = "COc1cccc(-c2cc(C#N)ccc2COC(c2ccc(C#N)c(Cl)c2)c2cncn2C)c1 (centres undefined)"
endpointname = "log10 of EC50"
reportedvalue = 2.11

[[record]]
compound = "CCOc1cccc(-c2cc(C#N)ccc2COC(c2ccc(C#N)cc2)c2cncn2C)c1 (centres undefined)"
endpointname = "log10 of EC50"
reportedvalue = -0.72

[[record]]
compound = "CCOc1cccc(-c2cc(Cl)ccc2COC(c2ccc(C#N)cc2)c2cncn2C)c1 (centres undefined)"
endpointname = "log10 of EC50"
reportedvalue = 0.66

[[record]]
compound = "Cn1cncc1C(OCc1ccc(C#N)cc1NCc1cc(F)cc(F)c1)c1ccc(C#N)cc1 (centres undefined)"
endpointname = "log10 of EC50"
reportedvalue = 2.18


---

- experimentSummary: in vivo
- appliedConditions: dog, plasma
Rule: clearance below 8 mL/min/kg gives Fulfilled, anything at or above gives Not fulfilled.

[[record]]
molecule = "COCc1cccc(-c2cc(C#N)ccc2COC(c2ccc(C#N)cc2)c2cncn2C)c1 (stereo not given)"
categorylabel = "Not fulfilled"

[[record]]
molecule = "Cn1cncc1C(OCc1ccc(C#N)cc1-c1ccc2c(c1)OCO2)c1ccc(C#N)cc1 (stereo not given)"
categorylabel = "Not fulfilled"

[[record]]
molecule = "Cn1cncc1C(OCc1ccc(C#N)cc1C(=O)Nc1ccccc1)c1ccc(C#N)cc1 (stereo not given)"
categorylabel = "Fulfilled"

[[record]]
molecule = "CCOc1cccc(-c2cc(C#N)ccc2COC(c2ccc(C#N)cc2)c2cncn2C)c1 (stereo not given)"
categorylabel = "Not fulfilled"

[[record]]
molecule = "Cn1cncc1C(OCc1ccc(C#N)cc1-c1ccc(OC(F)(F)F)cc1)c1ccc(C#N)cc1 (stereo not given)"
categorylabel = "Fulfilled"


---

- experimentalSystem: Protein farnesyltransferase (Homo sapiens, UniProt P49354+P49356)
- experimentSummary: Effective concentration required for inhibition of farnesylation of Ras protein in NIH3T3 cells
Measured EC50 of individual entries
endpointName: EC50

[[record]]
molecule = "COC(=O)c1ccc(COC(c2ccc(C#N)cc2)c2cncn2C)c(-c2cccc(OC)c2)c1 (stereo not given)"
reportedvalue = "> 100 nM"

[[record]]
molecule = "COc1cccc(-c2cc(NS(C)(=O)=O)ccc2COC(c2ccc(C#N)cc2)c2cncn2C)c1 (stereo not given)"
reportedvalue = "> 100 nM"

[[record]]
molecule = "Cc1ccc(S(=O)(=O)Nc2cc(C#N)ccc2COC(c2ccc(C#N)cc2)c2cncn2C)cc1 (stereo not given)"
reportedvalue = "13 nM"

[[record]]
molecule = "Cn1cncc1C(OCc1ccc(C#N)cc1NS(=O)(=O)c1cccs1)c1ccc(C#N)cc1 (stereo not given)"
reportedvalue = "> 100 nM"

[[record]]
molecule = "Cn1cncc1C(OCc1ccc(C#N)cc1NS(=O)(=O)c1cccc2ccccc12)c1ccc(C#N)cc1 (stereo not given)"
reportedvalue = "> 100 nM"


---

- experimentalSystem: Protein farnesyltransferase (Homo sapiens, UniProt P49354+P49356)
- experimentSummary: Effective concentration required for inhibition of farnesylation of Ras protein in NIH3T3 cells
pEC50: −log10 of the molar value.
endpointName: pEC50

[[record]]
compound = "CCOc1ccc(-c2cc(C#N)ccc2COC(c2ccc(C#N)cc2)c2cncn2C)cc1 (centres undefined)"
experimentalsystem = "Protein farnesyltransferase (Homo sapiens, UniProt P49354+P49356)"
endpointname = "pEC50"
valueprefix = "="
reportedvalue = 7.89

[[record]]
compound = "Cn1cncc1C(OCc1ccc(C#N)cn1)c1ccc(C#N)c(-c2cccc3ccccc23)c1 (centres undefined)"
experimentalsystem = "Protein farnesyltransferase (Homo sapiens, UniProt P49354+P49356)"
endpointname = "pEC50"
valueprefix = "="
reportedvalue = 8.10

[[record]]
compound = "Cn1cncc1C(OCc1ccc(C#N)cc1-c1cccc2cccnc12)c1ccc(C#N)cc1 (centres undefined)"
experimentalsystem = "Protein farnesyltransferase (Homo sapiens, UniProt P49354+P49356)"
endpointname = "pEC50"
valueprefix = "="
reportedvalue = 7.82

[[record]]
compound = "Cn1cncc1C(OCc1ccc(C#N)cc1-c1ccc2c(c1)OCO2)c1ccc(C#N)cc1 (centres undefined)"
experimentalsystem = "Protein farnesyltransferase (Homo sapiens, UniProt P49354+P49356)"
endpointname = "pEC50"
valueprefix = ">"
reportedvalue = 9.00

[[record]]
compound = "Cn1cncc1C(OCc1ccc(C#N)cc1-c1ccc(F)c(F)c1)c1ccc(C#N)cc1 (centres undefined)"
experimentalsystem = "Protein farnesyltransferase (Homo sapiens, UniProt P49354+P49356)"
endpointname = "pEC50"
valueprefix = "="
reportedvalue = 7.02

[[record]]
compound = "COCC(=O)Nc1ccc(COC(c2ccc(C#N)cc2)c2cncn2C)c(-c2cccc(OC)c2)c1 (centres undefined)"
experimentalsystem = "Protein farnesyltransferase (Homo sapiens, UniProt P49354+P49356)"
endpointname = "pEC50"
valueprefix = "<"
reportedvalue = 7.00

[[record]]
compound = "Cn1cncc1C(OCc1ccc(Cl)cc1-c1ccc(Cl)cc1)c1ccc(C#N)cc1 (centres undefined)"
experimentalsystem = "Protein farnesyltransferase (Homo sapiens, UniProt P49354+P49356)"
endpointname = "pEC50"
valueprefix = "="
reportedvalue = 6.28

[[record]]
compound = "COc1cccc(-c2cc(N)ccc2COC(c2ccc(C#N)cc2)c2cncn2C)c1 (centres undefined)"
experimentalsystem = "Protein farnesyltransferase (Homo sapiens, UniProt P49354+P49356)"
endpointname = "pEC50"
valueprefix = "<"
reportedvalue = 7.00

[[record]]
compound = "N#Cc1ccc(C(OCc2ccc(C#N)cc2-c2ccc3c(c2)OCO3)c2cnccc2Cl)cc1 (centres undefined)"
experimentalsystem = "Protein farnesyltransferase (Homo sapiens, UniProt P49354+P49356)"
endpointname = "pEC50"
valueprefix = "<"
reportedvalue = 7.00

